Reference source: ChEMBL document CHEMBL1201862

System: MDA-MB-231
Assay remarks: NCI tumour cell line growth inhibition, 48 h
The source made the active and inactive calls. Cut-off read from the data, not from the text of the source: active = GI50 up to about 1.1 µM and inactive = higher.
Endpoint name: GI50

{"Compound": "O=C(CC(C(=O)c1ccsc1)c1cccs1)c1ccsc1 (centres undefined)", "Value": "92 µM (inactive)"}
{"Compound": "CC(C)(C)OC(=O)n1c(-c2ccccc2F)cc(=O)c2cc3c(cc21)OCO3", "Value": "3.68 µM (inactive)"}
{"Compound": "CCCCCCCCCCCCCCCC(=O)OCC(COP(=O)(O)OCCNC(=O)CCSSc1ccccn1)OC(=O)CCCCCCCCCCCCCCC (centres undefined)", "Value": "> 100 µM (inactive)"}
{"Compound": "CN1CCc2c3n(c4cc(Br)ccc24)[C@H](O)CCCC31 (some centres undefined)", "Value": "2.13 µM (inactive)"}
{"Compound": "COc1ccc2c(c1)N=C1CSC(c3ccccc3Cl)N1C2 (centres undefined)", "Value": "27.4 µM (inactive)"}
{"Compound": "CO/C=C/C=C(\\C#N)C(=O)OC", "Value": "> 100 µM (inactive)"}
{"Compound": "CN(COC(=O)c1ccccc1)c1nc(N(C)COC(=O)c2ccccc2)nc(N(C)COC(=O)c2ccccc2)n1", "Value": "15.7 µM (inactive)"}
{"Compound": "Nc1cc2c3c(c1)Oc1cc(N)cc4c1C3c1c(cc(N)cc1O4)O2", "Value": "16.2 µM (inactive)"}
{"Compound": "CC1CC[C@@]2(OC1)OC1C[C@H]3[C@@H]4CCC5CC(O)CC[C@]5(C)[C@H]4C/C(=N\\N(C)C)[C@]3(C)C1[C@@H]2C (some centres undefined)", "Value": "19.2 µM (inactive)"}
{"Compound": "Nc1ccc(-c2ccc(Nc3cc(S(=O)(=O)O)c(N)c4c3C(=O)c3ccccc3C4=O)cc2)c(S(=O)(=O)O)c1", "Value": "> 100 µM (inactive)"}
{"Compound": "CCn1nc(-c2ccccc2)c2c1N(C)c1ccccc1-n1c(-c3ccccc3)nnc1-2", "Value": "13.4 µM (inactive)"}
{"Compound": "N#Cc1sc2c(c1OC(=O)c1ccc(Cl)cc1Cl)c(=O)n(-c1ccccc1)c(=S)n2-c1ccccc1", "Value": "22.8 µM (inactive)"}
{"Compound": "Cc1ccc2c(c1)C(=O)C1(Cc3ccccc3C1=O)C2 (centres undefined)", "Value": "> 100 µM (inactive)"}
{"Compound": "CC(=O)Nc1ccc2cc3c(nc2n1)c1cccnc1n3S(=O)(=O)c1ccccc1", "Value": "> 100 µM (inactive)"}

###

System: SK-OV-3
Assay remarks: NCI tumour cell line growth inhibition, 48 h
Active and inactive are the calls of the source. Rule as the data show it: active = GI50 up to about 1.1 µM and inactive = higher.
Quick reference: GI50 of the listed items.
Endpoint name: GI50

{"Molecule": "NC(CCC(=O)c1ccccn1)C(=O)O (stereo unspecified)", "Value": "> 100 µM (inactive)"}
{"Molecule": "Fc1c(F)c(F)c(CSc2nc3ccccc3[nH]2)c(F)c1F", "Value": "> 100 µM (inactive)"}
{"Molecule": "Cc1ccc([N+](=O)[O-])cc1/N=N/C(=O)NNc1cc([N+](=O)[O-])ccc1C", "Value": "11.1 µM (inactive)"}
{"Molecule": "Cn1c(COC(=O)Nc2ccccc2)c(COC(=O)Nc2ccccc2)c2ccc3cc(Cl)c(Cl)cc3c21", "Value": "20.9 µM (inactive)"}
{"Molecule": "N#CC(C#N)=CNC(=S)c1ccncc1", "Value": "> 100 µM (inactive)"}
{"Molecule": "CC(=O)c1sc(Nc2ccc(Cl)c(Cl)c2)nc1C", "Value": "> 100 µM (inactive)"}
